biological target: IDO1 (Homo sapiens, UniProt P14902); experiment: IDO1 cellular activity using HEK293 cells transfected with IDO1 expression vector; assay type: cell-based; set-up: host or cells: HEK293 cells, transient transfection with Lipofectamine 2000; details: 24 h compound incubation, read-out: Inhibitory Activity (IC50)
Sequence (P14902 whole entry): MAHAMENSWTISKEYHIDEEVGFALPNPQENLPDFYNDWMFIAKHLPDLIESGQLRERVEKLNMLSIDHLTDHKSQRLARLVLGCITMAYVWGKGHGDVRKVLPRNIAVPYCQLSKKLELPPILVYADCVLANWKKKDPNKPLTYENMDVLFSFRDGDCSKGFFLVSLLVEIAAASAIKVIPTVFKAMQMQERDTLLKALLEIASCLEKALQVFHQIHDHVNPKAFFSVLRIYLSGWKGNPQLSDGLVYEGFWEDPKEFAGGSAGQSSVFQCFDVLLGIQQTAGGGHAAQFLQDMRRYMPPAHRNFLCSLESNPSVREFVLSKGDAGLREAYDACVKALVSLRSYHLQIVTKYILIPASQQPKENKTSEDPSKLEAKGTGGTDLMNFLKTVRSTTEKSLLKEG
pIC50: −log10 of the molar value.
measure_name: pIC50

substance_smiles | measured_on | pIC50
C[C@H](C[C@H]1CC[C@@H](c2ccnc3ccc(F)cc32)CC1)Nc1nc2cc(F)ccc2o1 | IDO1 (Homo sapiens, UniProt P14902) | 8.24
C[C@H](C[C@H]1CC[C@@H](c2ccnc3ccc(F)cc32)CC1)Nc1nc(Cl)nc2cc(C#N)ccc12 | IDO1 (Homo sapiens, UniProt P14902) | 7.56
C[C@H](C[C@H]1CC[C@@H](c2ccnc3ccc(F)cc32)CC1)Nc1nc2ncccc2o1 | IDO1 (Homo sapiens, UniProt P14902) | 8.06

a = C[C@H](C[C@H]1CC[C@@H](c2ccnc3ccc(F)cc32)CC1)Nc1nc2cccnc2o1
b = CC[C@H](C[C@H]1CC[C@@H](c2ccnc3ccc(F)cc32)CC1)Nc1nc2ccc(Cl)cc2o1
c = CCOc1ccc2nc(N[C@H](C)C[C@H]3CC[C@@H](c4ccnc5ccc(F)cc54)CC3)oc2c1
QUERY: Endpoint returns the given molecules ordered by ascending pIC50. Submit the labels in the order that the ranking request calls for.
RESULT: a, b, c
(a: 7.72, b: 8.13, c: 8.36)

A = C[C@H](C[C@H]1CC[C@@H](c2ccnc3ccc(F)cc32)CC1)Nc1nc(Cl)nc2ccccc12
B = C[C@H](C[C@H]1CC[C@@H](c2ccnc3ccc(F)cc32)CC1)Nc1nc(Cl)nc2c(Cl)cccc12
C = CCOc1ccc2nc(N[C@H](C)C[C@H]3CC[C@@H](c4ccnc5ccc(F)cc54)CC3)sc2c1
D = COc1cccc2c(N[C@H](C)C[C@H]3CC[C@@H](c4ccnc5ccc(F)cc54)CC3)nc(Cl)nc12
QUERY: Task field, ranking: reported pIC50, descending order. // rank by listing labels in the order requested
RESULT: C, A, B, D

1 = C[C@H](C[C@H]1CC[C@@H](c2ccnc3ccc(F)cc32)CC1)Nc1nc(Cl)nc2ccc(F)cc12
2 = C[C@H](C[C@H]1CC[C@@H](c2ccnc3ccc(F)cc32)CC1)Nc1nc(Cl)nc2cc(Br)ccc12
3 = C[C@H](C[C@H]1CC[C@H](c2ccnc3ccc(F)cc32)CC1)Nc1nc(Cl)nc2cc(C(F)(F)F)ccc12
4 = COc1ccc2nc(N[C@H](C)C[C@H]3CC[C@@H](c4ccnc5ccc(F)cc54)CC3)oc2c1
QUERY: // ranking: key=pIC50, reverse=True Quick reminder: the answer is the labels in the order asked.
RESULT: 4, 3, 2, 1
(4: 8.19, 3: 7.77, 2: 7.41, 1: 7.21)

====

test: Pharmacokinetics through oral administration in normal rats; type: in vivo; details: 10 mg/5 mL/kg
measure_name: Area under the curve (ng·h/mL)

a = C[C@H](C[C@H]1CC[C@H](c2ccnc3ccc(F)cc32)CC1)Nc1cc(=O)oc2cc(Br)ccc12
b = C[C@H](C[C@H]1CC[C@@H](c2ccnc3ccc(F)cc32)CC1)Nc1nc2ccc(Cl)cc2o1
c = C[C@@H](C(=O)Nc1ccc(Cl)cc1)C1CCC(c2ccnc3ccc(F)cc23)CC1 (stereo partly shown) [BMS-986205, reference compound]
d = C[C@H](C[C@H]1CC[C@@H](c2ccnc3ccc(F)cc32)CC1)Nc1ncnc2cc(Br)ccc12
QUERY: Ascending sort, Area under the curve. Arrange the labels as the request states and list them.
RESULT: c, b, a, d

====

Experiment: Pharmacokinetics through oral administration in normal rats
Assay type: in vivo
Details: 10 mg/5 mL/kg
Experimental: The pharmacokinetics of the compounds of Examples 2, 5 and 25 and BMS-986205 (control) were measured in rats, respectively. The compounds of Examples 2, 5 and 25 and BMS-986205 (control) were each suspended in 0.5% methyl cellulose containing 0.2% Tween 80 and then orally administered to rats at a dose of 10 mg/5 mL/kg. Blood samples were collected from the rat in predetermined times. The concentration of the compound in each sample was analyzed to obtain the blood concentration profiles (FIG. 1).
measure_name: Time to maximum plasma concentration (h)

compound | readout_units | Time to maximum plasma concentration
C[C@H](C[C@H]1CC[C@@H](c2ccnc3ccc(F)cc32)CC1)Nc1nc2ccc(Cl)cc2o1 | h | 2
C[C@@H](C(=O)Nc1ccc(Cl)cc1)C1CCC(c2ccnc3ccc(F)cc23)CC1 (stereo partly shown) [BMS-986205, reference compound] | h | 1

A = C[C@H](C[C@H]1CC[C@H](c2ccnc3ccc(F)cc32)CC1)Nc1cc(=O)oc2cc(Br)ccc12
B = C[C@H](C[C@H]1CC[C@@H](c2ccnc3ccc(F)cc32)CC1)Nc1ncnc2cc(Br)ccc12
QUERY: Name the one with the greater Time to maximum plasma concentration value, either A or B as given. Indicate your choice by writing its label.
RESULT: A
(A: 4 h, B: 1 h)

====

experiment: Pharmacokinetics through oral administration in normal rats; type: in vivo; settings: 10 mg/5 mL/kg, suspension in 0.5% methyl cellulose containing 0.2% Tween 80
measure_name: Maximum plasma concentration (ng/mL)

A = C[C@H](C[C@H]1CC[C@@H](c2ccnc3ccc(F)cc32)CC1)Nc1ncnc2cc(Br)ccc12
B = C[C@H](C[C@H]1CC[C@H](c2ccnc3ccc(F)cc32)CC1)Nc1cc(=O)oc2cc(Br)ccc12
QUERY: Which record would sort first by descending Maximum plasma concentration, A or B ? Let me know the label of the one you choose.
RESULT: A
(A: 18050.3 ng/mL, B: 4476.3 ng/mL)

P = C[C@H](C[C@H]1CC[C@@H](c2ccnc3ccc(F)cc32)CC1)Nc1nc2ccc(Cl)cc2o1
Q = C[C@@H](C(=O)Nc1ccc(Cl)cc1)C1CCC(c2ccnc3ccc(F)cc23)CC1 (stereo partly shown) [BMS-986205, reference compound]
QUERY: When the recorded Maximum plasma concentration values are compared, which is smaller: that of P or that of Q ? Kindly state the label of the option you pick.
RESULT: Q

====

biological target: IDO1 (Homo sapiens); assay: IDO1 cellular activity using Hela cells (IFN-gamma induced IDO expression, kynurenine absorbance at 480 nm); assay type: cell-based; conditions: IDO induced with interferon gamma 50 ng/ml, 24 h compound incubation, read-out: Inhibitory Activity (IC50)
measure_name: IC50 (nM)

# count of solved cases: 6
compound | IC50 / nM
C[C@H](C[C@H]1CC[C@@H](c2ccnc3ccc(F)cc32)CC1)Nc1cc(=O)oc2cc(Cl)ccc12 [Example 8] | 5.9
C[C@H](C[C@H]1CC[C@@H](c2ccnc3ccc(F)cc32)CC1)Nc1ncnc2cc(Br)ccc12 [Example 2] | 8.8
C[C@H](C[C@H]1CC[C@H](c2ccnc3ccc(F)cc32)CC1)Nc1c(F)c(=O)oc2cc(Br)ccc12 [Example 12] | 7.2
C[C@H](C[C@H]1CC[C@H](c2ccnc3ccc(F)cc32)CC1)Nc1cc(=O)oc2cc(Cl)ccc12 [Example 6] | 17
C[C@H](C[C@H]1CC[C@@H](c2ccnc3ccc(F)cc32)CC1)Nc1nc2ncccc2o1 [Example 32] | 11.4
C[C@H](C[C@H]1CC[C@@H](c2ccnc3ccc(F)cc32)CC1)Nc1nc2cccc(Cl)c2s1 [Example 18] | 7.5

I = C[C@H](C[C@H]1CC[C@H](c2ccnc3ccc(F)cc32)CC1)Nc1cc(=O)oc2cc(Br)ccc12 [Example 5]
II = C[C@H](C[C@H]1CC[C@H](c2ccnc3ccc(F)cc32)CC1)Nc1c(F)c(=O)oc2cc(Cl)ccc12 [Example 10]
III = C[C@H](C[C@H]1CC[C@@H](c2ccnc3ccc(F)cc32)CC1)Nc1nc2ccc(Cl)cc2o1 [Example 25]
QUERY: Returns the items ordered by IC50, from maximum to minimum. Put the labels in the requested order and list them out.
RESULT: I, II, III

====

Biological target: IDO1 (Homo sapiens)
Test: IDO1 cellular activity using Hela cells (IFN-gamma induced IDO expression, kynurenine absorbance at 480 nm)
Format: cell-based
Details: IDO induced with interferon gamma 50 ng/ml, 24 h compound incubation, read-out: Inhibitory Activity (IC50)
Description: Hela cells were seeded at a density of 20000 cells/well in 100 μl of a culture medium (EMEM supplemented with 10% FBS, penicillin 100 U/ml, and streptomycin 100 μg/ml) in a tissue culture-treated 96 well plate. […] The activities were measured using IDO1 cellular activity-measuring substrate (IDO1 cellular activity quickDetect supplements catalog: #62000-2, BPS Bioscience). […] After reacting at room temperature for 10 minutes, absorbance was measured at 480 nm wavelength. […]
pIC50: −log10 of the molar value.
measure_name: pIC50

molecule | pIC50
COc1ccc2nc(N[C@H](C)C[C@H]3CC[C@@H](c4ccnc5ccc(F)cc54)CC3)oc2c1 [Example 26] | 7.82
C[C@H](C[C@H]1CC[C@@H](c2ccnc3ccc(F)cc32)CC1)Nc1c(F)c(=O)oc2cc(Br)ccc12 [Example 11] | 7.73
C[C@H](C[C@H]1CC[C@H](c2ccnc3ccc(F)cc32)CC1)Nc1cc(=O)oc2ccc(Br)cc12 [Example 7] | 7.72

A = COc1ccc2nc(N[C@H](C)C[C@H]3CC[C@@H](c4ccnc5ccc(F)cc54)CC3)sc2n1 [Example 22]
B = COc1ccc2nc(N[C@@H](C[C@H]3CC[C@@H](c4ccnc5ccc(F)cc54)CC3)C3CC3)sc2c1 [Example 16]
C = COc1ccc2nc(N[C@H](C)C[C@H]3CC[C@@H](c4ccnc5ccc(F)cc54)CC3)sc2c1 [Example 14]
QUERY: Order these by pIC50, descending, and give the full ranking. Put the labels in the order asked and list them.
RESULT: C, B, A
(C: 9.00, B: 8.40, A: 7.80)

a = C[C@H](C[C@H]1CC[C@H](c2ccnc3ccc(F)cc32)CC1)Nc1ncnc2cc(Cl)ccc12 [Example 4]
b = CC[C@H](C[C@H]1CC[C@@H](c2ccnc3ccc(F)cc32)CC1)Nc1nc2ccc(OC)cc2s1 [Example 15]
QUERY: Choose between a and b : whose measured pIC50 value is numerically larger? Provide the label of your selected option as the answer.
RESULT: b

A = C[C@H](C[C@H]1CC[C@@H](c2ccnc3ccc(F)cc32)CC1)Nc1nc2ncc(Cl)cc2s1 [Example 23]
B = C[C@H](C[C@H]1CC[C@@H](c2ccnc3ccc(F)cc32)CC1)Nc1nc2ccc(F)cc2o1 [Example 29]
QUERY: Which value of pIC50 is smaller, the one for A or the one for B ? Provide the label of your selected option as the answer.
RESULT: A

A = C[C@H](C[C@H]1CC[C@@H](c2ccnc3ccc(F)cc32)CC1)Nc1nc2c(F)cc(F)cc2s1 [Example 17]
B = C[C@H](C[C@H]1CC[C@@H](c2ccnc3ccc(F)cc32)CC1)Nc1nc2ccc(Cl)cc2s1 [Example 13]
QUERY: Could you please tell me which of these two has the higher pIC50: A or B ? // return label of chosen record
RESULT: A
(A: 7.72, B: 7.52)
